Every entry's value here was drawn from patent EP3378852A1.

# procedure-details: Determination of apparent solubility (shake flask, 37 °C, 12 h, HPLC external standard)
# Assay type: physicochemical
# protocol-conditions: pH 4.5 diluent, 37 °C, pH 4.5, aqueous buffer, thermodynamic from solid, pH value of Dilution 4.5; 37 °C ± 0.5 °C, 12h
measured-endpoint: solubility at 12 h (µg/mL)
One number for each entry, in µg/mL.

For record CCOc1cc([C@@H](CS(C)(=O)=O)N2C(=O)c3cccc(NC(C)=O)c3C2=O)ccc1OC the listed solubility at 12 h is 42.2
